Taken from the supplement of paper PMC12042874.

# Assay Comment: amyloid nucleation score (Sup35N fusion, yeast selection) (log enrichment); library NNK1; higher = more nucleation; inactive = no reads after selection;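 note: zero at mode of non-aggregating sequences after 7 days selection at 30°C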
Measured Metric: amyloid nucleation score
One number for each entry.

1) SLVLRRLYEVSVTCTAGNAW    0.094
2) GTKNLCDYIWPGPPGSVVRN    -0.159
3) RFETRTL    0.93
4) RWKRVIMSQHQVVYVNSWMV    -0.484
5) CNDISISFYMRTGACYWRVW    -0.499

For every item in the list below, what is its measured amyloid nucleation score?
1. LFRWEGVATACSCGDDASFA
2. YMHSGGQGLLCIQVSYTMSF

A)
1. -0.668
2. -0.503

Batch: amyloid nucleation score for all items listed.
1. IGDNVNGSLLEIW
2. NNINWVKGKHR
3. MLLALVIEADRRRWSVNGMY
4. DRRGRRYKVRRVCMVMESLG
5. YSFALSVG

A)
1: -0.528; 2: -1.06; 3: 2.93; 4: 0.703; 5: 0.874

Please report amyloid nucleation score for every entry that follows.
1. SCKPGPIVSLDFVFVVYPWE
2. FDKSRVDRLSDKGRCCCVL
3. IRLTILLSKVDTDE

A)
0.002
1.36
0.885

# return amyloid nucleation score for each item in the list
1. FLSLFVSVV
2. YLGSGCRFETSYLDATFPVS

A)
-0.18
0.387

Hey, quick one: what's amyloid nucleation score for each of these?
1. CSSDFYYLAELNLPFN
2. SSMLSISVFEWITFRWR

A)
0.917
0.181

Provide amyloid nucleation score for all items below, preserving their order.
1. ICYIPADFVKPAMVNLYLAM
2. VVYIHFAII
3. DYWRHSHVLHSPTKRKNRLV
4. DSYDTTSNRAPVMLKVNYSM
5. HFVAVFMFYGWPSWYSYSES
6. NFSLIFENMIALFPYPARKR
7. RDCFIRGKWCTCWHWCEGGE
8. IVTKGGLNNVCAVYLCYVGS

A)
1: 2.99; 2: 0.439; 3: 0.223; 4: -0.692; 5: -0.93; 6: 7.74; 7: 1.34; 8: 6.46

Please look at the items below and tell me amyloid nucleation score for each one, in order.
1. MNTSVAWMVR
2. RVWMGFDWIEDESRLDSTM

A)
-0.149
0.21

Give amyloid nucleation score for each listed item.
1. NPLMTTLATSDMWRNQFISG
2. QSYTLYMMSLFKS
3. FMGVINGEITLVNSFVTYMR
4. ITYIGWQGSNLYWLFTTTLV
5. ECTRSGVFSCNSWIKYESSM
6. RLYPQYLNFKVCKFGSLDGG

A)
1: 1.38; 2: -0.34; 3: 7.77; 4: -1.12; 5: -0.145; 6: -0.836
